The measured values listed here are drawn from patent US20250011379.

measurement.type: C4c ref fold (fold)
Field format: number, assumed fold, no unit text.

Q. Value wanted: C4c ref fold (human C4b (UniProt P0C0L5)) of entry Const. No. 77: HSA-GGSSGG-hCFI; H383K; R388Q; E392Q; Y393T; K419M
A. 3.81

Q. Value wanted: C4c ref fold (human C4b (UniProt P0C0L5)) of entry Const. No. 33: HSA-GGSSGG-hCFI; H554F
A. 0.55

Q. Value wanted: C4c ref fold (human C4b (UniProt P0C0L5)) of entry Const. No. 20: HSA-GGSSGG-hCFI; T495F; Y496L; S499G; I500K
A. 0.05

Q. Value wanted: C4c ref fold (human C4b (UniProt P0C0L5)) of entry Const. No. 79: HSA-GGSSGG-hCFI; Q69H; L73F; G79E; T80I; L83S; N84H
A. 3.36

Q. Value wanted: C4c ref fold (human C4b (UniProt P0C0L5)) of entry Const. No. 41: HSA-GGSSGG-hCFI; L73F
A. 2.36

Q. Value wanted: C4c ref fold (human C4b (UniProt P0C0L5)) of entry Const. No. 40: HSA-GGSSGG-hCFI; T59E
A. 2.17

Q. Value wanted: C4c ref fold (human C4b (UniProt P0C0L5)) of entry Const. No. 31: HSA-GGSSGG-hCFI; N402K
A. 1.14

Q. Value wanted: C4c ref fold (human C4b (UniProt P0C0L5)) of entry Const. No. 53: HSA-GGSSGG-hCFI; D395G
A. 0.8

Q. Value wanted: C4c ref fold (human C4b (UniProt P0C0L5)) of entry Const. No. 50: HSA-GGSSGG-hCFI; E416K
A. 1.23

Q. Value wanted: C4c ref fold (human C4b (UniProt P0C0L5)) of entry Const. No. 16: HSA-GGSSGG-hCFI; S499V
A. 1.24

Q. Value wanted: C4c ref fold (human C4b (UniProt P0C0L5)) of entry Const. No. 12: HSA-GGSSGG-hCFI; Δ(Y496; D497)
A. 0.9

Q. Value wanted: C4c ref fold (human C4b (UniProt P0C0L5)) of entry Const. No. 36: HSA-GGSSGG-hCFI; A342R
A. 2.08

Q. Value wanted: C4c ref fold (human C4b (UniProt P0C0L5)) of entry Const. No. 18: HSA-GGSSGG-hCFI; S499G; I500K
A. 0.08

Q. Value wanted: C4c ref fold (human C4b (UniProt P0C0L5)) of entry Const. No. 11: HSA-GGSSGG-hCFI; Δ(D497)
A. -0.02

Q. Value wanted: C4c ref fold (human C4b (UniProt P0C0L5)) of entry Const. No. 3: HSA-GGSSGG-hCFI; L307F
A. 3.48

Q. Value wanted: C4c ref fold (human C4b (UniProt P0C0L5)) of entry Const. No. 56: HSA-GGSSGG-hCFI; D395A; D425A
A. 0.65

Q. Value wanted: C4c ref fold (human C4b (UniProt P0C0L5)) of entry Const. No. 28: HSA-GGSSGG-hCFI; E401A
A. 0.86

Q. Value wanted: C4c ref fold (human C4b (UniProt P0C0L5)) of entry Const. No. 19: HSA-GGSSGG-hCFI; S499A; I500K
A. -0.05

Q. Value wanted: C4c ref fold (human C4b (UniProt P0C0L5)) of entry Const. No. 48: HSA-GGSSGG-hCFI; Δ(V565) > VG
A. 0.67

Q. Value wanted: C4c ref fold (human C4b (UniProt P0C0L5)) of entry Const. No. 6: HSA-GGSSGG-hCFI; L307Y
A. 2.98

Q. Value wanted: C4c ref fold (human C4b (UniProt P0C0L5)) of entry Const. No. 93: HSA-GGSSGG-hCFI; T377A
A. 2.36

Q. Value wanted: C4c ref fold (human C4b (UniProt P0C0L5)) of entry Const. No. 72: HSA-GGSSGGSSGG-Cyno CFI
A. 0.34

Q. Value wanted: C4c ref fold (human C4b (UniProt P0C0L5)) of entry Const. No. 55: HSA-GGSSGG-hCFI; D395R
A. 1.38
